pKi: −log10 of the molar value.
Kindly find below pKi information for hCRTH2 receptor (Homo sapiens (Human), UniProt Q9Y5Y4) taken from the literature.

Fill in: pKi on hCRTH2 receptor (Homo sapiens (Human), UniProt Q9Y5Y4), entry Cc1c(C2c3ccccc3S(=O)(=O)N2c2ccccc2)c2ccccc2n1CC(=O)O (stereo not shown) > 6.00

Output reported pKi of the molecule Cc1c(CC(=O)O)c2cc(C#N)ccn2c1Cc1ccc(Cl)cc1 on hCRTH2 receptor (Homo sapiens (Human), UniProt Q9Y5Y4). 7.59

Provide pKi, tested on hCRTH2 receptor (Homo sapiens (Human), UniProt Q9Y5Y4), for O=C(O)Cc1c2n(c3ccccc13)CC(n1cc(-c3ccc(C(F)(F)F)cc3)nn1)CC2 (stereo not shown) . < 7.00

Lab note: hCRTH2 receptor (Homo sapiens (Human), UniProt Q9Y5Y4) assay, enter pKi for O=C(O)Cc1c2n(c3ccccc13)CC(n1nncc1C(O)c1ccc(Br)cc1)CC2 (stereo not shown) here 7.30 to 8.00

Provide pKi, tested on hCRTH2 receptor (Homo sapiens (Human), UniProt Q9Y5Y4), for O=C(O)Cc1c2n(c3ccccc13)CC(n1nncc1C1CCCCC1)CC2 (stereo not shown) . < 7.00

// fetch pKi; item: Cc1c(C2c3ccccc3S(=O)(=O)N2Cc2ccc(F)cc2)c2cc(Cl)ccc2n1CC(=O)O (stereo not shown) ; system: hCRTH2 receptor (Homo sapiens (Human), UniProt Q9Y5Y4) > 6.00

Give the observed pKi of CCCc1nc2cc(N(Cc3ccc(F)cc3)C(=O)COC)ccc2n1CC(=O)O for hCRTH2 receptor (Homo sapiens (Human), UniProt Q9Y5Y4). > 6.00

Specify the recorded pKi for COc1ccc2c(c1)c(C1c3ccccc3S(=O)(=O)N1Cc1ccc(C#N)cc1)cn2CC(=O)O (stereo not shown) , system: hCRTH2 receptor (Homo sapiens (Human), UniProt Q9Y5Y4). > 5.00

Supply pKi measured with hCRTH2 receptor (Homo sapiens (Human), UniProt Q9Y5Y4) for N#Cc1cn(CC(=O)O)cc1-c1cc(C(F)(F)F)cc(S(=O)(=O)N2CCN(Cc3ccncc3)CC2)c1 . 7.77

Please respond with reported pKi (system hCRTH2 receptor (Homo sapiens (Human), UniProt Q9Y5Y4)) for O=C(O)CN1C(=O)C2(CC(=O)N(Cc3ccccc3F)C2)c2cc(Cl)ccc21 (stereo not shown) . 6.85

Consider the molecule Cc1c(CC(=O)O)c2ccc(F)cn2c1Sc1ccc(S(=O)(=O)N2CCOCC2)cc1F tested on hCRTH2 receptor (Homo sapiens (Human), UniProt Q9Y5Y4); state its pKi. 9.30

Send back hCRTH2 receptor (Homo sapiens (Human), UniProt Q9Y5Y4) pKi of O=C(O)Cc1c2n(c3c(F)cccc13)CC(n1nncc1Cc1ccc(Cl)cc1)CC2 (single isomer, unassigned) only. ≥ 8.30

Give the observed pKi of COc1ccc2[nH]c(-c3ccc(Cn4nc(C)c(CC(=O)O)c4C)c(F)c3)nc2c1 for hCRTH2 receptor (Homo sapiens (Human), UniProt Q9Y5Y4). 8.24

// fetch pKi for CCc1nc2c(F)ccc(O[C@@H](C)C(=O)O)c2c(OC(F)F)c1Cc1ccc(Cl)cc1Cl ; system: hCRTH2 receptor (Homo sapiens (Human), UniProt Q9Y5Y4) > 7.00

Provide pKi, recorded with hCRTH2 receptor (Homo sapiens (Human), UniProt Q9Y5Y4), of Cc1c(Cc2ccc(S(C)(=O)=O)cc2)c(OC(F)F)nc2c(Cl)ccc(CC(=O)O)c12 > 7.00

Please respond with reported pKi (system hCRTH2 receptor (Homo sapiens (Human), UniProt Q9Y5Y4)) for Cc1c(Cc2ccc(Cl)cc2Cl)c(OC(F)F)nc2c(F)ccc(OC(C)C(=O)O)c12 (stereo not shown) . > 7.00
